Recorded values, source ChEMBL document CHEMBL3102696.

The listing below reports Ki for compounds tested on Botulinum neurotoxin type A (Clostridium botulinum, UniProt P0DPI0).
Sequence (P0DPI0 2-448 limits assumed): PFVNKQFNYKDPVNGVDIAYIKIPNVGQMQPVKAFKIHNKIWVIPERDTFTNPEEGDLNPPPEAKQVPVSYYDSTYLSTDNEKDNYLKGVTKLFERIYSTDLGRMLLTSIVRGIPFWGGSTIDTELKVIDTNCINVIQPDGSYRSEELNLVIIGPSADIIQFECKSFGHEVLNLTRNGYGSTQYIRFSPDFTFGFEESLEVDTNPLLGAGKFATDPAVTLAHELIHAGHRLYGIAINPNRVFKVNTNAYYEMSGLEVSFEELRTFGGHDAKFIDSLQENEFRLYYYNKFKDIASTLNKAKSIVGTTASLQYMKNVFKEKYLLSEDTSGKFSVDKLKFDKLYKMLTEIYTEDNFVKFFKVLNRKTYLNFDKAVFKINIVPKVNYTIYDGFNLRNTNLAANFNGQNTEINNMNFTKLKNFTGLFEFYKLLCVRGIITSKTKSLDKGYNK

{"columns": ["compound", "tested_system", "Ki"],
 "data": [
  ["O=C(CC(CCOCCc1ccc(F)cc1)c1ccc(Cl)cc1Cl)NO (configuration not stated)", "Botulinum neurotoxin type A (Clostridium botulinum, UniProt P0DPI0)", "2.1 µM"],
  ["COc1cc(F)ccc1NC(=O)CC(CC(=O)NO)c1ccc(Cl)cc1Cl (configuration not stated)", "Botulinum neurotoxin type A (Clostridium botulinum, UniProt P0DPI0)", "1 µM"]
]}

====

tested_system: Botulinum neurotoxin type A (Clostridium botulinum)
Parameter: EC50. Scope: all listed entries.

{"columns": ["compound", "EC50"],
 "data": [
  ["O=C(CC(CCOCC12CC3CC(CC(Br)(C3)C1)C2)c1ccc(Cl)cc1Cl)NOC(=O)NCc1ccccc1 (stereo not drawn)", "> 1000 µM"],
  ["O=C(CC(CC(=O)Nc1ccc(Br)cc1)c1ccc(Cl)cc1Cl)NOC(=O)NCc1ccccc1 (stereo not drawn)", "198 µM"],
  ["Cc1ccccc1NC(=O)CC(CC(=O)NOC(=O)NCc1ccccc1)c1ccc(Cl)cc1Cl (stereo not drawn)", "209 µM"]
]}
